Molecular target: T1, human amylin receptor (amylin 3(a) receptor: human calcitonin receptor co-expressed with RAMP-3) (human, UniProt P30988 25-474; O60896 24-148)
T1 sequence (looked up) 1: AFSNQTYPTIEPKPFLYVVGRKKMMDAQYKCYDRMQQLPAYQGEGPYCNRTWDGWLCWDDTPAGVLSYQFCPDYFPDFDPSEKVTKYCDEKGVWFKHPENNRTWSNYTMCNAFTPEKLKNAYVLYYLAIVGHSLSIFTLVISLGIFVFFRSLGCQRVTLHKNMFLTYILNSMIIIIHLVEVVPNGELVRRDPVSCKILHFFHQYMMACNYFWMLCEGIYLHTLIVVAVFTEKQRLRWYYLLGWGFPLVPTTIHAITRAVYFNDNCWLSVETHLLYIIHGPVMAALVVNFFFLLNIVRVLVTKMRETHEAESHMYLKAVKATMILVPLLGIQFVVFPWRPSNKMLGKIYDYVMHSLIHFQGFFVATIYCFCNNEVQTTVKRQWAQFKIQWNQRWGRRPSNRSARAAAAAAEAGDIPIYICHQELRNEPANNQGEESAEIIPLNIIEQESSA
T1 sequence (looked up) 2: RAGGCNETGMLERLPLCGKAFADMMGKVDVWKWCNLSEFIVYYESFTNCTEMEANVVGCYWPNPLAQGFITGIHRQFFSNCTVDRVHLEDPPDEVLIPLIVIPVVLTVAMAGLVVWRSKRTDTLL
Assay: cell-based or functional assay
Numbered stars: 1 amine (or outer) side, 2 acyl side, 3 side chain; on linkers, the order of the positions; unused ones are H or OH. Bridge positions count the residues as written; N and C are the ends. Side chains are listed from the residue outwards. Ends that are not written are not given here. * marks the point of attachment. C20 diacid = O=C(O)CCCCCCCCCCCCCCCCCCC(=O)*; γGlu = O=C(O)[C@H](CCC(=O)[*:2])N[*:1]
MEASURE_NAME: hAmylin-R funct. EC50 (pM), CRE-luciferase reporter in BHK amylin 3(a) receptor cells

Past entries and their recorded results:
{"BINDER": "K([γGlu-C20 diacid])CNTATCATQRLAEFLRHSSPNFGAIPSSTNVGSHTY-NH2 (disulfide 2-7 (inferred), Synthetic acylated analogue of human amylin)", "MEASURED": 425}
{"BINDER": "K([γGlu-γGlu-C20 diacid])CNTATCATQRLAEFLRHSSPNFGAIPSSTNVGPNTF-NH2 (disulfide 2-7 (inferred), Synthetic acylated analogue of human amylin)", "MEASURED": 216}

1. K([γGlu-γGlu-C20 diacid])CNTATCATQRLAEFLRHSSPNFGAIPSSTNVGPETP-NH2 (disulfide 2-7 (inferred), Synthetic acylated analogue of human amylin)
2. K([γGlu-γGlu-C20 diacid])CNTATCATQRLAEFLRHSSNNPGAILSSTNVGPETY-NH2 (disulfide 2-7 (inferred), Synthetic acylated analogue of human amylin)
Request: For the pair 1 and 2 , which entry has the numerically smaller recorded hAmylin-R funct. EC50 (pM), CRE-luciferase reporter in BHK amylin 3(a) receptor cells? Return value: the label identifying the chosen record.
Result: 1
